Biological target: T1, Human BCMA monomer (human, UniProt Q02223 1-54, limits assumed)
T1 construct: also called BCMA from human (mobile phase)
T1 sequence (looked up): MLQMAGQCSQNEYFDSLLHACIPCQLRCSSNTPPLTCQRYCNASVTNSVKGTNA
Experiment: BLI (ForteBio Octet), IgG captured on AHC probe, antigen in solution, monovalent
Catalogue of Kd values
MEASURED QUANTITY: Kd (nM)

binder="antibody ADI-38491 (antibody, V domains shown) VH: QLQLQESGPGLVKPSETLSLTCTVSGGSIVSSSYYWTWIRQPPGKGLEWIGSISIAGSTYYNPSLKSRVTISVDTSKNQFSLKLSSVTAADTAVYYCARDRGDTILDVWGQGTMVTVSS VL: DIQMTQSPSSLSASVGDRVTITCRASQSISRYLNWYQQKPGKAPKLLIYAASSLQSGVPSRFSGSGSGTDFTLTISSLQPEDFATYYCQQKYFDITFGGGTKVEIK" recorded_value=1.02
binder="antibody ADI-38497 (antibody, V domains shown) VH: QLQLQESGPGLVKPSETLSLTCTVSGGSIVSSSYYWTWIRQPPGKGLEWIGSISIAGSTYYNPSLKSRVTISVDTSKNQFSLKLSSVTAADTAVYYCARDRGDQILDVWSQGTMVTVSS VL: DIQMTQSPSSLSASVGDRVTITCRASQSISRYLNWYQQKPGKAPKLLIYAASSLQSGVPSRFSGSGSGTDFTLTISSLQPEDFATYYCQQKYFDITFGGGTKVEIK" recorded_value=0.621
binder="anti-BCMA parent antibody ADI-34861 (antibody, V domains shown, Tested as IgG (captured by anti-human Fc probe)) VH: QLQLQESGPGLVKPSETLSLTCTVSGGSISSSSYYWGWIRQPPGKGLEWIGSISYSGSTYYNPSLKSRVTISVDTSKNQFSLKLSSVTAADTAVYYCARDRGDTILDVWGQGTMVTVSS VL: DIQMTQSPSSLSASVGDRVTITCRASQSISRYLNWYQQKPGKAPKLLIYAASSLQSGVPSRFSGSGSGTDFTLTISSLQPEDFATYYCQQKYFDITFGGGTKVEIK" recorded_value=17.3
binder="antibody ADI-38481 (antibody, V domains shown) VH: QVQLVQSGAEVKKPGSSVKVSCKASGGTFSNDVISWVRQAPGQGLEWMGVIIPIFGIANYAQKFQGRVTITADESTSTAYMELSSLRSEDTAVYYCARGRGYYSSWLLDIWGQGTMVTVSS VL: DIQMTQSPSSLSASVGDRVTITCQASQDITNYLNWYQQKPGKAPKLLIYDASNLETGVPSRFSGSGSGTDFTFTISSLQPEDIATYYCQQAFDLITFGGGTKVEIK" recorded_value=0.1
binder="antibody ADI-38484 (antibody, V domains shown) VH: QVQLVQSGAEVKKPGSSVKVSCKASGGTFSNDVISWVRQAPGQGLEWMGVIIPIFGIANYAQKFQGRVTITADESTSTAYMELSSLRSEDTAVYYCARGRGYYSSWLHDIWGQGTMVTVSS VL: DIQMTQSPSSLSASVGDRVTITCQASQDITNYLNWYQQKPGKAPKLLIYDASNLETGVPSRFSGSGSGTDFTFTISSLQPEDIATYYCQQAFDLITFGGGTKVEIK" recorded_value=0.0794
